From: ChEMBL document CHEMBL4033783

The following molecules are shown together with reported Vd values.
Protocol text: Volume of distribution at steady state in iv dosed dog plasma
Assay type: ADME, organism-based, Canis lupus familiaris
Condition info: read-out: Vdss
Numbers only; they are read as L/kg.

Here's what some known entries look like.
INSERT INTO measurements (structure_notation, measured_value) VALUES
  ('NC(=O)c1cnc(N[C@H]2CCCNC2)c2cc(-c3ccccc3)sc12', 3.7),
  ('NC(=O)c1cnc(N[C@H]2CCCNC2)c2cc(-c3cccc(F)c3)sc12', 4.4);

Field: next molecule
# Vd lookup, item C[C@H]1NCCC[C@@H]1Nc1ncc(C(N)=O)c2sc(-c3ccccc3)cc12 7.1

* * *

Protocol text: Volume of distribution at steady state in iv dosed mouse plasma
Assay type: ADME, organism-based
Condition info: read-out: Vdss
Value type: Vd (L/kg)
Numeric answer only, unit L/kg assumed.

Field: example entries. Status: answers known.
INSERT INTO results (structure_notation, uom, measured_value) VALUES
  ('C[C@H]1NCCC[C@@H]1Nc1ncc(C(N)=O)c2sc(-c3ccccc3)cc12', 'L/kg', 4.6),
  ('NC(=O)c1cnc(N[C@H]2CCCNC2)c2cc(-c3cccc(F)c3)sc12', 'L/kg', 4.6);

In the following, a different compound is considered.
For the compound shown here, NC(=O)c1cnc(N[C@H]2CCCNC2)c2cc(-c3ccccc3)sc12 , give the reported Vd. 4

* * *

System: MDA-MB-231
Protocol text: Antiproliferative activity against human MDA-MB-231 cells
Format: functional
Condition info: Homo sapiens, MDA-MB-231
Value type: GI50 (µM)
Enter your answer as a number in µM; do not include the unit.

INSERT INTO results (compound, study_target, value_type, measured_value) VALUES
  ('NC(=O)Nc1sc(-c2ccccc2)cc1C(=O)N[C@H]1CCCNC1', 'MDA-MB-231', 'GI50', 0.596);

Any idea what GI50 was measured for NC(=O)c1cnc(N[C@H]2CCCNC2)c2cc(-c3ccccc3)sc12 ? 0.536

For the compound shown here, Nc1ccn([C@@H]2O[C@H](CO)[C@@H](O)C2(F)F)c(=O)n1 [GEMCITABINE] , give the reported GI50. 0.251

Query (compound): NC(=O)c1cnc(N[C@H]2CCCNC2)c2cc(-c3cccc(F)c3)sc12 ; field requested: GI50 0.641

# GI50 lookup, item C[C@H]1NCCC[C@@H]1Nc1ncc(C(N)=O)c2sc(-c3ccccc3)cc12 0.306

* * *

Parameter: Vd. Scope: all listed entries.
Protocol text: Volume of distribution at steady state in iv dosed rat plasma
Assay type: ADME, organism-based
Condition info: read-out: Vdss
Form entry: value (L/kg) — number only.

As a guide, the following entries are already answered.
INSERT INTO assay_data (structure_notation, uom, measured_value) VALUES
  ('C[C@H]1NCCC[C@@H]1Nc1ncc(C(N)=O)c2sc(-c3ccccc3)cc12', 'L/kg', 24),
  ('NC(=O)c1cnc(N[C@H]2CCCNC2)c2cc(-c3ccccc3)sc12', 'L/kg', 75);

Consider now this further compound.
# get_value(readout='Vd', item= NC(=O)c1cnc(N[C@H]2CCCNC2)c2cc(-c3cccc(F)c3)sc12 ) 54.3

* * *

The following are reported PF results, target or system Serine/threonine-protein kinase Chk1 (Homo sapiens) (UniProt O14757).
Would you mind answering with just the numeric figure?

INSERT INTO measurements (structure_notation, measured_value) VALUES
  ('NC(=O)c1cnc(N[C@H]2CCCNC2)c2cc(-c3cccc(F)c3)sc12', 11),
  ('C[C@H]1NCCC[C@@H]1Nc1ncc(C(N)=O)c2sc(-c3ccccc3)cc12', 11),
  ('NC(=O)c1cnc(N[C@H]2CCCNC2)c2cc(-c3ccccc3)sc12', 12);

Next:
Requested read-out: PF. Entry: NC(=O)Nc1sc(-c2ccccc2)cc1C(=O)N[C@H]1CCCNC1 11
